System: HUVEC
TEST: Cytoprotective effect against high glucose-induced oxidative stress in HUVEC assessed as cell viability at 5 uM incubated by MTT assay (reference value: 72.1 to 77.9%)
Type: functional
TEST_PARAMETERS: Homo sapiens, read-out: Activity

>  <SMILES_RECORD>
COC(=O)[C@]1(O)C(=O)[C@]2(CC=C(C)C)C[C@H](O)C(C)(C)OC2=C1C(C)=O

>  <TARGET_UNDER_TEST>
HUVEC

>  <viability at 5 µM (%)>
93

$$$$
>  <SMILES_RECORD>
COC(=O)[C@@]1(O)C(=O)[C@]2(CC=C(C)C)C[C@@H](O)C(C)(C)OC2=C1C(C)=O

>  <TARGET_UNDER_TEST>
HUVEC

>  <viability at 5 µM (%)>
62.7

$$$$
>  <SMILES_RECORD>
COC(=O)[C@]1(O)C(=O)[C@@]2(CC=C(C)C)C[C@@H](O)C(C)(C)OC2=C1C(C)=O

>  <TARGET_UNDER_TEST>
HUVEC

>  <viability at 5 µM (%)>
82

$$$$
>  <SMILES_RECORD>
COC(=O)[C@@]1(O)C(=O)[C@@]2(CC=C(C)C)C[C@H](O)C(C)(C)OC2=C1C(C)=O

>  <TARGET_UNDER_TEST>
HUVEC

>  <viability at 5 µM (%)>
82

$$$$

###

Test system: HUVEC
TEST: Cytoprotective effect against high glucose-induced oxidative stress in HUVEC assessed as cell viability at 1 uM incubated by MTT assay (reference value: 72.1 to 77.9%)
Assay type: functional
TEST_PARAMETERS: Homo sapiens, read-out: Activity
Measured viability at 1 µM values are reported for all entries that follow.

>  <SMILES_RECORD>
COC(=O)[C@@]1(O)C(=O)[C@@]2(CC=C(C)C)C[C@@H](O)C(C)(C)OC2=C1C(C)=O

>  <viability at 1 µM>
101%

$$$$
>  <SMILES_RECORD>
COC(=O)[C@]1(O)C(=O)[C@@]2(CC=C(C)C)C[C@H](O)C(C)(C)OC2=C1C(C)=O

>  <viability at 1 µM>
71.7%

$$$$
>  <SMILES_RECORD>
COC(=O)[C@@]1(O)C(=O)[C@@]2(CC=C(C)C)C[C@H](O)C(C)(C)OC2=C1C(C)=O

>  <viability at 1 µM>
79.9%

$$$$
>  <SMILES_RECORD>
COC(=O)[C@]1(O)C(=O)[C@@]2(CC=C(C)C)C[C@@H](O)C(C)(C)OC2=C1C(C)=O

>  <viability at 1 µM>
79.9%

$$$$
>  <SMILES_RECORD>
COC(=O)[C@@]1(O)C(=O)[C@]2(CC=C(C)C)C[C@H](O)C(C)(C)OC2=C1C(C)=O

>  <viability at 1 µM>
103%

$$$$
>  <SMILES_RECORD>
COC(=O)[C@]1(O)C(=O)[C@]2(CC=C(C)C)C[C@@H](O)C(C)(C)OC2=C1C(C)=O

>  <viability at 1 µM>
103%

$$$$
>  <SMILES_RECORD>
Oc1ccc(/C=C/c2cc(O)cc(O)c2)cc1

>  <viability at 1 µM>
86.4%

$$$$
>  <SMILES_RECORD>
COC(=O)[C@]1(O)C(=O)[C@]2(CC=C(C)C)C[C@H](O)C(C)(C)OC2=C1C(C)=O

>  <viability at 1 µM>
94.2%

$$$$
>  <SMILES_RECORD>
COC(=O)[C@@]1(O)C(=O)[C@]2(CC=C(C)C)C[C@@H](O)C(C)(C)OC2=C1C(C)=O

>  <viability at 1 µM>
75.6%

$$$$
